Cited source: PubChem BioAssay

Target: L-lactate dehydrogenase (Plasmodium falciparum (isolate CDC / Honduras)) (UniProt Q27743)
Sequence (Q27743 whole entry, looked up): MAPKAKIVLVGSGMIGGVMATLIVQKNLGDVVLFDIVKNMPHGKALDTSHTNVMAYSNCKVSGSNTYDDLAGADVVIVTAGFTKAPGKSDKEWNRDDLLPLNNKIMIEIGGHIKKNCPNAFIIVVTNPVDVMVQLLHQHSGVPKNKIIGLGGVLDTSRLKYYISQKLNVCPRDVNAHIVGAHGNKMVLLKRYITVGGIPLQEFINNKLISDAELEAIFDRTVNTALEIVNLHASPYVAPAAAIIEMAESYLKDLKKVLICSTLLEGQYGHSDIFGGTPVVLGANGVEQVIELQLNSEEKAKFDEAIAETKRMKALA
Experiment: PfLDH activity inhibition – cell lysate, 3D7 strain, counter-screen for P. falciparum growth inhibition project (AID 2304);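 further: 0% = vehicle and 100% = reference inhibitor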
Settings: P. falciparum 3D7 crude extract, LDH APAD/NBT absorbance; at 2 µM; active compounds read high
Recorded inhibition values for a group of compounds are listed next.
All answers are understood in %, so give the number only.

Guide cases for inhibition, answers given:
{"COMPOUND": "COc1ccc(N2CCN(CCCN3CCN(C(=O)c4ccc(/C=C/c5ccc(Cl)c(Cl)c5)cc4)CC3)CC2)c(OC)c1", "MEASURED ON": "L-lactate dehydrogenase (Plasmodium falciparum (isolate CDC / Honduras)) (UniProt Q27743)", "inhibition, %": -3}
{"COMPOUND": "Cn1c(=O)c2nc(-c3ccc(Cl)cc3)nnc2n(CCCC#N)c1=O", "MEASURED ON": "L-lactate dehydrogenase (Plasmodium falciparum (isolate CDC / Honduras)) (UniProt Q27743)", "inhibition, %": 6}
{"COMPOUND": "Cc1cc(C)cc(OCC(O)CN(CCN2CCOCC2)C(=O)Nc2ccc(Br)cc2)c1 (centres undefined)", "MEASURED ON": "L-lactate dehydrogenase (Plasmodium falciparum (isolate CDC / Honduras)) (UniProt Q27743)", "inhibition, %": 0}
{"COMPOUND": "O=C(Nc1ccc(-c2nc3ccccc3[nH]2)cc1)c1cnc(Cl)c(Cl)c1", "MEASURED ON": "L-lactate dehydrogenase (Plasmodium falciparum (isolate CDC / Honduras)) (UniProt Q27743)", "inhibition, %": 0}
{"COMPOUND": "CCCCCCCNC(=O)NCC1CCCN(CCCCCNC(=O)/C=C/c2ccc(Cl)c(Cl)c2)C1 (centres undefined)", "MEASURED ON": "L-lactate dehydrogenase (Plasmodium falciparum (isolate CDC / Honduras)) (UniProt Q27743)", "inhibition, %": -1}

**Q:** // lookup inhibition for COc1ccc(-c2ccc(CNC(=O)c3ccc(Cl)cc3)c(F)c2)cc1CN1CCCN(C)CC1
**A:** -5

**Q:** Which inhibition is listed for c1ccc2c(C3CCN(CCCCOc4ccc5c(c4)CCN(C4CCC4)CC5)CC3)c[nH]c2c1 ?
**A:** -3

**Q:** Quick one: inhibition of FC(F)(F)c1ccc2nc(-c3ccc(-c4ccc(CNCCN5CCNCC5)cc4)s3)[nH]c2c1 ?
**A:** -2

**Q:** I am curious: what inhibition value has been reported for COc1cccc2c(NN=Cc3ccccc3F)ccnc12 ?
**A:** 1
